system: Aspergillus niger; test: Agar dilution plate; type: cell-based; settings: An; 100 ppm, 72 hours at 23° C

{"columns": ["COMPOUND", "Agar Dilution Plate rating"],
 "data": [
  ["CN(C)C(=S)SC(c1ccc(Cl)cc1Cl)C(C(c1ccc(Cl)cc1Cl)N(C)C)[N+](=O)[O-] (stereo not drawn)", 0],
  ["CN(C)C(=S)SCC(SC(=S)N(C)C)C(=O)c1ccccc1 (stereo not drawn)", 0],
  ["CN(C)C(=S)SC(C[N+](=O)[O-])c1ccc2c(c1)OCO2 (stereo not drawn)", 0],
  ["CCN(CC)C(=S)SC(C[N+](=O)[O-])c1ccccc1 (stereo not drawn)", 0],
  ["CN(C)C(=S)SC(C[N+](=O)[O-])c1cccs1 (stereo not drawn)", 0],
  ["CCN(CC)C(=S)SCC(CSC(=S)N(CC)CC)[N+](=O)[O-]", 0],
  ["CN(C)C(=S)SC(C[N+](=O)[O-])c1ccc(Cl)cc1Cl (stereo not drawn)", 0],
  ["CN(C)C(=S)SC(C[N+](=O)[O-])c1ccc(Cl)s1 (stereo not drawn)", 0]
]}

* * *

system: Phytophthora infestans; type: in vivo; design: scale not given here; settings: Tomato Late Blight; 150 ppm, five days
REPORTED_ENDPOINT: disease control index

{"columns": ["COMPOUND", "REPORTED_ENDPOINT", "ENDPOINT_VALUE"],
 "data": [
  ["CC(C)c1ccc(C(C[N+](=O)[O-])SC(=S)N(C)C)cc1 (centres unmarked)", "disease control index", 3],
  ["CCN(CC)C(=S)SCC(CSC(=S)N(CC)CC)[N+](=O)[O-]", "disease control index", 4],
  ["COc1ccc(C(C[N+](=O)[O-])SC(=S)N(C)C)cc1 (centres unmarked)", "disease control index", 5],
  ["CN(C)C(=S)SCC(CSC(=S)N(C)C)[N+](=O)[O-]", "disease control index", 3],
  ["CN(C)C(=S)SC(C[N+](=O)[O-])c1ccc(C(C[N+](=O)[O-])SC(=S)N(C)C)cc1 (centres unmarked)", "disease control index", 3]
]}

* * *

System: Stemphylium sarcinaeforme
Test: Spore germination inhibition
Format: cell-based
Conditions: Stemphylium sarciniforme; 10 ppm, 24 hours
Source text: The test procedure involves the preparation of a 100, 10 or 1 ppm. suspension of test compound in water. The solutions are placed in one dram "opticlear" vials and separately inoculated with one drop of a spore suspension prepared from seven-day cultures of Aspergillus niger and 14-day old cultures of Monilinia fructicola and Stemphylium sarcinaeforme,all grown on potato-dextrose agar. […]
inhibition at 10 ppm by entry:
REPORTED_ENDPOINT: inhibition at 10 ppm (%)

{"columns": ["COMPOUND", "ENDPOINT_VALUE"],
 "data": [
  ["CN(C)C(=S)SC(C[N+](=O)[O-])c1cccc2ccccc12 (stereo not shown)", 0],
  ["CN(C)C(=S)SC(C[N+](=O)[O-])c1ccccc1Cl (stereo not shown)", 100],
  ["COc1ccc(C(C[N+](=O)[O-])SC(=S)N(C)C)cc1OC (stereo not shown)", 100],
  ["CC(=O)C(CSC(=S)N(C)C)=C(C)O", 0]
]}

* * *

As shown below, each of these compounds has a reported disease control index value.
system: Phytophthora infestans; format: in vivo; set-up: scale not given here; conditions: Tomato Late Blight; 150 ppm, five days

{"columns": ["COMPOUND", "disease control index"],
 "data": [
  ["CN(C)C(=S)SC(C[N+](=O)[O-])c1ccccc1Cl (stereo not shown)", 2],
  ["CN(C)C(=S)SC(C[N+](=O)[O-])c1cccs1 (stereo not shown)", 5],
  ["CCN(CC)C(=S)SC(C[N+](=O)[O-])c1ccccc1 (stereo not shown)", 3],
  ["CN(C)C(=S)SC(C[N+](=O)[O-])c1ccco1 (stereo not shown)", 4],
  ["CN(C)C(=S)SC(C[N+](=O)[O-])c1ccccc1 (stereo not shown)", 5],
  ["COc1ccc(C(C[N+](=O)[O-])SC(=S)N(C)C)cc1OC (stereo not shown)", 5],
  ["CN(C)CC1(CSC(=S)N(C)C)SC(=S)NC1=O (stereo not shown)", 5],
  ["CN(C)C(=S)SC(C[N+](=O)[O-])c1ccc(Cl)cc1Cl (stereo not shown)", 0],
  ["CN(C)C(=S)SC(C[N+](=O)[O-])c1ccc(Br)cc1 (stereo not shown)", 2],
  ["O=[N+]([O-])C(CSC(=S)N1CCCCC1)CSC(=S)N1CCCCC1", 4]
]}

* * *

system: Phytophthora infestans; assay type: in vivo; design: scale not given here; conditions: Tomato Late Blight; at 500 ppm, five days

{"columns": ["MOLECULE", "disease control index"],
 "data": [
  ["CC(=O)Oc1ccc(C(C[N+](=O)[O-])SC(=S)N(C)C)cc1 (stereo not shown) [Example 24]", 5],
  ["COc1cccc(C(C[N+](=O)[O-])SC(=S)N(C)C)c1OC(C)=O (stereo not shown) [Example 21]", 5],
  ["CN(C)C(=S)SC(C[N+](=O)[O-])c1cccc2ccccc12 (stereo not shown) [Example 31]", 5],
  ["CN(C)C(=S)SCC(SC(=S)N(C)C)C(=O)c1ccccc1 (stereo not shown) [Example 11]", 4],
  ["CC(C(SC(=S)N(C)C)c1ccccc1)[N+](=O)[O-] (stereo not shown) [Example 18]", 5],
  ["CN(C)C(=S)SC(C[N+](=O)[O-])c1ccc(Cl)s1 (stereo not shown) [Example 34]", 3],
  ["CN(C)C(=S)SC(C[N+](=O)[O-])c1cc([N+](=O)[O-])ccc1Cl (stereo not shown) [Example 23]", 5],
  ["CN(C)C(=S)SC(C[N+](=O)[O-])c1ccc2c(c1)OCO2 (stereo not shown) [Example 28]", 5],
  ["CN(C)C(=S)SC(c1ccc(Cl)cc1Cl)C(C(c1ccc(Cl)cc1Cl)N(C)C)[N+](=O)[O-] (stereo not shown) [Example 8]", 5],
  ["CC(=O)C(CSC(=S)N(C)C)SC(=S)N(C)C (stereo not shown) [Example 10, Acetylethylene Dimethyldithiocarbamate]", 5]
]}

* * *

test system: Piricularia oryzae; assay type: in vivo; design: scale not given here; details: Rice Blast; at 500 ppm, five days

{"columns": ["COMPOUND", "TEST_SYSTEM", "disease control index"],
 "data": [
  ["COc1cccc(C(C[N+](=O)[O-])SC(=S)N(C)C)c1OC(C)=O (stereo not drawn) [Example 21]", "Piricularia oryzae", 4],
  ["CN(C)C(=S)SCC(SC(=S)N(C)C)C(=O)c1ccccc1 (stereo not drawn) [Example 11]", "Piricularia oryzae", 4],
  ["CN(C)C(=S)SC(C[N+](=O)[O-])c1cccc2ccccc12 (stereo not drawn) [Example 31]", "Piricularia oryzae", 5],
  ["CN(C)C(=S)SC(C[N+](=O)[O-])c1ccc(Cl)s1 (stereo not drawn) [Example 34]", "Piricularia oryzae", 3],
  ["CC(=O)Oc1ccc(C(C[N+](=O)[O-])SC(=S)N(C)C)cc1 (stereo not drawn) [Example 24]", "Piricularia oryzae", 4],
  ["CC(=O)C(CSC(=S)N(C)C)SC(=S)N(C)C (stereo not drawn) [Example 10, Acetylethylene Dimethyldithiocarbamate]", "Piricularia oryzae", 5],
  ["CN(C)C(=S)SC(c1ccc(Cl)cc1Cl)C(C(c1ccc(Cl)cc1Cl)N(C)C)[N+](=O)[O-] (stereo not drawn) [Example 8]", "Piricularia oryzae", 5],
  ["CN(C)C(=S)SC(C[N+](=O)[O-])c1cc([N+](=O)[O-])ccc1Cl (stereo not drawn) [Example 23]", "Piricularia oryzae", 4],
  ["CC(C(SC(=S)N(C)C)c1ccccc1)[N+](=O)[O-] (stereo not drawn) [Example 18]", "Piricularia oryzae", 5]
]}

* * *

tested on: Monilinia fructicola; assay: Spore germination inhibition; type: cell-based; details: 1 ppm, 24 hours

{"columns": ["COMPOUND", "TEST_SYSTEM", "inhibition at 1 ppm (%)"],
 "data": [
  ["CN(C)C(=S)SC(C[N+](=O)[O-])c1ccccc1Cl (stereo not shown) [Example 27]", "Monilinia fructicola", 0],
  ["COc1ccc(C(C[N+](=O)[O-])SC(=S)N(C)C)cc1 (stereo not shown) [Example 29]", "Monilinia fructicola", 0],
  ["CN(C)C(=S)SC(C[N+](=O)[O-])c1ccccc1 (stereo not shown) [Example 13]", "Monilinia fructicola", 100],
  ["CN(C)C(=S)SC(C[N+](=O)[O-])c1ccc2c(c1)OCO2 (stereo not shown) [Example 28]", "Monilinia fructicola", 100],
  ["CC(=O)C(CSC(=S)N(C)C)SC(=S)N(C)C (stereo not shown) [Example 10, Acetylethylene Dimethyldithiocarbamate]", "Monilinia fructicola", 100],
  ["CN(C)C(=S)SCC(CSC(=S)N(C)C)[N+](=O)[O-] [Example 1]", "Monilinia fructicola", 100],
  ["CCC(CSC(=S)N(C)C)[N+](=O)[O-] (stereo not shown) [Example 6, 2-Nitrobutyl Dimethyldithiocarbamate]", "Monilinia fructicola", 100],
  ["CN(C)C(=S)SC(C[N+](=O)[O-])c1cccc2ccccc12 (stereo not shown) [Example 31]", "Monilinia fructicola", 0],
  ["CN(C)C(=S)SC(C[N+](=O)[O-])c1ccc(Cl)s1 (stereo not shown) [Example 34]", "Monilinia fructicola", 0],
  ["CN(C)C(=S)SC(C[N+](=O)[O-])c1cccs1 (stereo not shown) [Example 33]", "Monilinia fructicola", 100]
]}

Reference source for all entries: patent US4148795A
